assay: antimalarial activity against Dd2 strain (AID 2302);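 further: 0% = DMSO untreated growth and 100% = chloroquine plus artemisinin killed control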; settings: P. falciparum Dd2 in RBCs, LDH growth readout, 72 h; at 2 µM
Active and inactive are the calls of the source.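 How the source made its calls: active means growth inhibition above 50% at the single 2 µM test dose, taken to imply half-maximal potency below 2 µM; inactive means the rest.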
Pick from 1.0 (active), 0.0 (inactive) when you respond.

compound: Clc1ccc2c(NN=Cc3cccnc3)ccnc2c1
assignedCategory: 1.0
//
compound: FC(F)(F)c1cccc(C=NNc2nc3ccccc3[nH]2)c1
assignedCategory: 1.0
//
compound: O=C(/C=C/c1ccc(Cl)c(Cl)c1)NC1CCN(CCCNC(=O)c2cccc(Cl)c2)CC1
assignedCategory: 0.0
//
compound: CC(C)Oc1ccc2c(c1)OC(c1ccccc1)(C(F)(F)F)NC2=O (stereo not given)
assignedCategory: 1.0
//
compound: COc1ccc(CNCc2ccc(F)cc2)cc1-c1ccc(OC)c(S(=O)(=O)NCCN2CCCC2)c1
assignedCategory: 1.0

Data request: Outcome logged for CCCC(C)NC(=O)C(N)Cc1cccc(I)c1 (stereo not given) in this assay:
Data returned: 1.0

Data request: Try this compound next: Nc1nc(NCC2CCC(CNS(=O)(=O)c3cccc4ccccc34)CC2)nc2ccccc12 (stereo not given)
Data returned: 0.0

Data request: Try this compound next: COc1ccc(C(C(=O)NC2CCN(C[C@H](O)c3ccnc4ccc(OC)cc34)CC2)N2CCN(Cc3ccccc3)CC2)cc1 (stereo not given in full)
Data returned: 1.0

Data request: Try this compound next: `Cc1ccc2c(NN=Cc3cccc(F)c3)cc(C)nc2c1`
Data returned: 1.0

Data request: Try this compound next: `O=C(/C=C/c1ccc(Cl)c(Cl)c1)NCCCCCN1CCCN(C(=O)Nc2cccc(F)c2)CC1`
Data returned: 0.0

Data request: Try this compound next: `FC(F)c1nc2ccccc2n1-c1nc(N2CCOCC2)nc(N2CCOCC2)n1`
Data returned: 1.0

###

test: stimulators of nuclear beta-catenin in C2C12, primary screen, imaging, WNT3A-conditioned medium, mouse C2C12, NPC library (AID 1117326); details: stimulation, at 2 µM, stronger effect = higher value; further: reference of the scale not given here
Exercise: state measured nuclear beta-catenin stimulation for each of the compounds provided.
Numbers only, in %.

Batch request: nuclear beta-catenin stimulation for each of the following compounds.
1. Nc1cccc2c1CN(C1CCC(=O)NC1=O)C2=O (stereo not given)
2. C#Cc1cccc(Nc2ncnc3cc(OCCOC)c(OCCOC)cc23)c1
3. O=c1cc[nH]c(=O)[nH]1
4. Cc1ncc([N+](=O)[O-])n1C
5. OC[C@@H](O)[C@@H](O[C@@H]1O[C@H](CO)[C@H](O)[C@H](O)[C@H]1O)[C@H](O)[C@@H](O)CO
6. CCCCCCCC(=O)OCC(COC(=O)CCCCCCC)OC(=O)CCCCCCC
7. COc1cc2c(c(OC)c1OC)-c1ccc(OC)c(=O)cc1[C@@H](NC(C)=O)CC2
8. CCOC(=O)/C=C(C)/C=C/C=C(C)/C=C/c1c(C)cc(OC)c(C)c1C

Data returned:
1. 0.3
2. -0.8
3. 0.3
4. 22.2
5. 0.9
6. -1.9
7. 72.6
8. -0.4

Batch request: nuclear beta-catenin stimulation for each of the following compounds.
1. COC(=O)[C@@H]1CC2=CC(=O)CC[C@]2(C)[C@@]23O[C@@H]2C[C@@]2(C)[C@@H](CC[C@@]24CCC(=O)O4)[C@H]13
2. C#CCN(C)CCCOc1ccc(Cl)cc1Cl

Data returned:
1: 1.3; 2: -0.5

###

test: sensitizers of A549 cells to miR-34 induction, primary screen, imaging, A549 dox-inducible miR-34, nuclei and caspase counts (AID 1347080); conditions: A549 miR-34 inducible, Hoechst nuclei count, 48 h; measured here: total cells without miR-34 induction
Exercise: state measured cell count for each of the compounds provided.
Numbers only.

Look over these answered cases.
compound: OCC(CO)N[C@H]1C[C@](O)(CO)[C@@H](O)[C@H](O)[C@H]1O
quantity: cell count
resultNumber: 10200

compound: COCC(=O)Nc1c(I)c(C(=O)NCC(O)CO)c(I)c(C(=O)N(C)CC(O)CO)c1I (stereo unspecified)
quantity: cell count
resultNumber: 10100

compound: O=c1[nH]c(=O)c2ccccc2o1
quantity: cell count
resultNumber: 9930

compound: CCCCN(CCCC)CC(O)c1cc(Cl)cc2c1-c1ccc(Cl)cc1/C2=C/c1ccc(Cl)cc1 (stereo unspecified)
quantity: cell count
resultNumber: 8560

compound: C[n+]1c2cc(N)ccc2cc2ccc(N)cc21
quantity: cell count
resultNumber: 1510

Batch request: cell count for each of the following compounds.
1. Cc1[nH]ccc2c1[nH]c1cc(=O)ccc12
2. COC(=O)C1=C(C#N)NC(C)=C(C(=O)OC(C)C)C1c1cccc([N+](=O)[O-])c1 (stereo unspecified)
3. CC1(C)S[C@@H]2[C@H](NC(=O)[C@H](N)c3ccc(O)cc3)C(=O)N2[C@H]1C(=O)O
4. CC(CNC1CCCCC1)OC(=O)c1ccccc1 (stereo unspecified)
5. CN(C)CCN1C(=O)c2ccccc2N(C)c2ccccc21
6. CCCCCCCCCCCCCCCC[N+](C)(C)CCN(Cc1ccc(OC)cc1)c1ncccn1
7. O=C(O)CN(CCOCCOCCN(CC(=O)O)CC(=O)O)CC(=O)O
8. O=C1OC(OC(=O)c2cccnc2Nc2cccc(C(F)(F)F)c2)c2ccccc21 (stereo unspecified)

Data returned:
1: 7750; 2: 8010; 3: 10900; 4: 9670; 5: 11300; 6: 5900; 7: 10400; 8: 8060

Batch request: cell count for each of the following compounds.
1. CC1(CN2CCC(n3c(=O)[nH]c4ccccc43)CC2)OCc2ccccc2-n2cccc21 (stereo unspecified)
2. CN(C)CCn1nnnc1SCC1=C(C(=O)O)N2C(=O)[C@@H](NC(=O)Cc3csc(N)n3)[C@H]2SC1
3. Oc1cc2c(cc1O)[C@@H]1c3ccc(O)c(O)c3OC[C@]1(O)C2
4. CN[C@@H]1[C@@H](O[C@H]2O[C@H](CO)[C@@H](N)[C@H](O)[C@H]2O)O[C@H]2C[C@@H](N)[C@@H](O[C@H]3[C@H](O)[C@@H](O)[C@H](N)C[C@@H]3N)O[C@@H]2[C@@H]1O
5. NC(=O)C1(N2CCCCC2)CCN(CCCC(=O)c2ccc(F)cc2)CC1
6. CCN(CC)CCNC(C(=O)OCCC(C)C)c1ccccc1 (stereo unspecified)

Data returned:
[6680, 9520, 10500, 10900, 9580, 8620]

Batch request: cell count for each of the following compounds.
1. O=C(O)c1ccc[n+]([O-])c1
2. CC(C)COC(=O)c1ccc(N)cc1

Data returned:
[9250, 9080]

###

assay: stimulators of nuclear beta-catenin in C2C12, primary screen, imaging, WNT3A-conditioned medium, mouse C2C12, NPC library (AID 1117326); details: stimulation, at 2 µM, stronger effect = higher value; further: reference of the scale not given here
quantity: nuclear beta-catenin stimulation (%)
Answers are plain numbers, in %.

molecule: CCCCC(CC)COC(=O)C(C#N)=C(c1ccccc1)c1ccccc1 (centres undefined)
nuclear beta-catenin stimulation, %: 0.7
//
molecule: Cc1cc(C)c(/C=C2\C(=O)Nc3ccccc32)[nH]1
nuclear beta-catenin stimulation, %: 0.7
//
molecule: CC(=O)N[C@@H](CCC(N)=O)C(=O)O
nuclear beta-catenin stimulation, %: 0.1

Batch request: nuclear beta-catenin stimulation for each of the following molecules.
1. CC(CC=O)CCCC(C)(C)O (centres undefined)
2. CCOC(=O)Nc1ccc2c(c1)N(C(=O)CCN1CCOCC1)c1ccccc1S2
3. CCCCC(O)c1ccccc1 (centres undefined)
4. CCCCCCCCCCCCCCCC(=O)O
5. CCCCCCOC(=O)c1cccnc1
6. CN1CCC(=C2c3ccccc3CCc3cccnc32)CC1

Data returned:
1: -1.3; 2: 1.1; 3: -0.8; 4: 1.7; 5: 1.5; 6: -0.6

###

test: decreased DLD-1 cellular survival, CellTiter-Glo luminescent readout, NPC compound collection, primary HTS (AID 1117346); details: DLD-1 viability, CellTiter-Glo luminescence; at 20 µM (top of the series)
Active and inactive are the calls of the source.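 How the source made its calls: active means compounds that lower survival of DLD-1 colon cancer cells in the luminescence readout, no cutoff given; inactive means the rest.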
Pick from TRUE = active, FALSE = inactive when you respond.

compound: CCOc1ccccc1C(N)=O
assignedCategory: FALSE

Data request: Outcome logged for `CC(=O)Nc1ncc([N+](=O)[O-])s1` in this assay:
Data returned: FALSE

Data request: Try this compound next: `Cc1nnc(C(=O)NC(C)(C)c2nc(C(=O)NCc3ccc(F)cc3)c(O)c(=O)n2C)o1`
Data returned: FALSE

Data request: Try this compound next: `OC[C@@H](O)[C@@H](O[C@@H]1O[C@H](CO)[C@H](O)[C@H](O)[C@H]1O)[C@H](O)[C@@H](O)CO`
Data returned: FALSE

Data request: Try this compound next: `CN(C)C(=O)COC(=O)Cc1ccc(OC(=O)c2ccc(N=C(N)N)cc2)cc1`
Data returned: FALSE

Data request: Try this compound next: COC(=O)C1=C(C)NC(C)=C(C(=O)OCCCN2CCC(c3ccccc3)(c3ccccc3)CC2)C1c1cccc([N+](=O)[O-])c1 (stereo unspecified)
Data returned: TRUE

Data request: Try this compound next: CC(CN(C)C)C(C)(O)Cc1ccc(Cl)cc1 (stereo unspecified)
Data returned: FALSE

Data request: Try this compound next: CCC1C(=O)OCC1Cc1cncn1C (stereo unspecified)
Data returned: FALSE

Data request: Try this compound next: `CN1CCN(C2=Nc3ccccc3Sc3ccc(Cl)cc32)CC1`
Data returned: TRUE

Data request: Try this compound next: CN1C(CCl)Nc2cc(Cl)c(S(N)(=O)=O)cc2S1(=O)=O (stereo unspecified)
Data returned: FALSE

Data request: Try this compound next: CCCCC(CC)COc1ccc(-c2nc(-c3ccc(OC)cc3)nc(-c3ccc(OCC(CC)CCCC)cc3O)n2)c(O)c1 (stereo unspecified)
Data returned: FALSE

Data request: Try this compound next: `Nc1c[n+](N2CCOCC2)no1`
Data returned: FALSE

Data request: Try this compound next: `Nc1nc(Cl)nc2c1ncn2[C@@H]1O[C@H](CO)[C@@H](O)[C@@H]1F`
Data returned: FALSE

Data request: Try this compound next: `C1CCN2C[C@@H]3C[C@@H](CN4CCCC[C@@H]34)[C@H]2C1`
Data returned: FALSE

Data request: Try this compound next: `COC(c1ccccc1)(c1ccccc1)[C@H](Oc1nc(C)cc(C)n1)C(=O)O`
Data returned: FALSE

Data request: Try this compound next: `N[C@@H](CC(=O)O)C(=O)O`
Data returned: FALSE

Data request: Try this compound next: `CC(C)C[C@H](NC(=O)[C@H](Cc1ccccc1)NC(=O)c1cnccn1)B(O)O`
Data returned: TRUE

Data request: Try this compound next: NC(=O)OCC(O)COc1ccc(Cl)cc1 (stereo unspecified)
Data returned: FALSE
